In this section we review reported % thrombin activity, Original screen values for a set of compounds.
Molecular target: thrombin (Homo sapiens)
Construct: consists of two polypeptide chains of 36 (light chain) and 259 amino acid
Assay: Thrombin inhibition screen of crude macrocycle reactions (residual thrombin activity, fluorogenic substrate Z-Gly-Gly-Arg-AMC)
Type: biochemical
Conditions: 10 µM macrocycle concentration; macrocycles containing acid 14; crude reaction; original screen
Numbered stars: 1 amine (or outer) side, 2 acyl side, 3 side chain; on linkers, the order of the positions; unused ones are H or OH. Bridge positions count the residues as written; N and C are the ends. Square brackets hold non-standard residues; d marks the D form. Peptide text beside a SMILES is read from it. * marks the point of attachment. ξ: configuration not given here. ξPro(4-NHCO(5-Cl-2-thienyl)) = O=C(NC1CNC(C(=O)O)C1)c1ccc(Cl)s1; 2Thenoyl(5-Cl) = O=C(c1ccc(Cl)s1)*; Cysteamide = C(CS[*:3])N[*:1]; Api = NC1(C(=O)O)CCNCC1; Mpa = O=C(O)CCS
Lab book: enter the figure in %, no units written.

Qu. Identify % thrombin activity, Original screen associated with the compound CCC(C)C1NC(=O)C(CCCCNC(=O)c2ccc(Cl)s2)NC(=O)CCSSCCNC(=O)C2(CC2)CNC1=O (stereo not drawn) [X D1 I B6]
Ans. 91.0

Qu. Identify % thrombin activity, Original screen associated with the compound CC(C)CC1NC(=O)C(CCCNC(=O)c2ccc(Cl)s2)NC(=O)C2(CC2)CNC(=O)CCSSCCNC1=O (stereo not drawn) [X B6 D2 L]
Ans. 107.3

Qu. Identify % thrombin activity, Original screen associated with the compound O=C1CCSSCCNC(=O)[C@@H](Cc2c[nH]c3ccccc23)NC(=O)[C@@H](CNC(=O)c2ccc(Cl)s2)NC(=O)CCN1
Ans. 88.8

Qu. Identify % thrombin activity, Original screen associated with the compound O=C1CCSSCCNC(=O)[C@H](Cc2ccc(O)cc2)NC(=O)C2(CC2)CNC(=O)[C@H](CNC(=O)c2ccc(Cl)s2)N1
Ans. 70.6

Qu. Identify % thrombin activity, Original screen associated with the compound CC[C@H](C)[C@@H]1NC(=O)CCSSCCNC(=O)[C@H](CNC(=O)c2ccc(Cl)s2)NC(=O)CCNC1=O
Ans. 72.9

Qu. Identify % thrombin activity, Original screen associated with the compound O=C1CCSSCCNC(=O)C2(CCN(C(=O)c3ccc(Cl)s3)CC2)NC(=O)[C@@H]2CCCN2C(=O)[C@@H](CO)N1 [X s B1 D6] ([Mpa][dS]P[Api](2Thenoyl(5-Cl))-Cysteamide; disulfide 1-C)
Ans. 104.7

Qu. Identify % thrombin activity, Original screen associated with the compound O=C1CNC(=O)[C@@H](NC(=O)c2ccc(Cl)s2)CSSCCNC(=O)c2ccc(cc2)CNC(=O)[C@@H](CO)N1
Ans. 93.7

Qu. Identify % thrombin activity, Original screen associated with the compound O=C1NCCSSCCC(=O)N2CC(NC(=O)c3ccc(Cl)s3)CC2C(=O)NC(CO)C(=O)NCc2ccc1cc2 (stereo not drawn)
Ans. 92.6

Qu. Identify % thrombin activity, Original screen associated with the compound CC(C)CC1NC(=O)C2CCCN2C(=O)CCSSCCNC(=O)C2CC(NC(=O)c3ccc(Cl)s3)CN2C1=O (stereo not drawn) [X B1 L D5] ([Mpa]PL[ξPro(4-NHCO(5-Cl-2-thienyl))]-Cysteamide; disulfide 1-C; configuration not given here)
Ans. 94.2

Qu. Identify % thrombin activity, Original screen associated with the compound O=C1NC2(CCN(C(=O)c3ccc(Cl)s3)CC2)C(=O)NCCSSCCC(=O)N2CCCC2C(=O)NC1Cc1c[nH]c2ccccc12 (stereo not drawn) [X B1 w D6] ([Mpa]PW[Api](2Thenoyl(5-Cl))-Cysteamide; disulfide 1-C; configuration not given here)
Ans. 94.1

Qu. Identify % thrombin activity, Original screen associated with the compound O=C1CCSSCCNC(=O)C2CCCN2C(=O)C2CC(NC(=O)c3ccc(Cl)s3)CN2C(=O)C(Cc2ccc(O)cc2)N1 (stereo not drawn) [X Y D5 B1] ([Mpa]Y[ξPro(4-NHCO(5-Cl-2-thienyl))]P-Cysteamide; disulfide 1-C; configuration not given here)
Ans. 92.3

Qu. Identify % thrombin activity, Original screen associated with the compound CC(C)CC1NC(=O)C2CC(NC(=O)c3ccc(Cl)s3)CN2C(=O)CCSSCCNC(=O)c2ccc(cc2)CNC1=O (stereo not drawn)
Ans. 110.6

###

Molecular target: UniProt Q00987
Assay: MDM2 binding screen: displacement of fluorescent p53 peptide probe FP53 (fluorescence polarization)
Settings: Acid 14; initial screen; crude macrocycle reactions
Numbered stars: 1 amine (or outer) side, 2 acyl side, 3 side chain; on linkers, the order of the positions; unused ones are H or OH. Bridge positions count the residues as written; N and C are the ends. Square brackets hold non-standard residues; d marks the D form. Peptide text beside a SMILES is read from it. * marks the point of attachment. 2Thenoyl(5-Cl) = O=C(c1ccc(Cl)s1)*; Cysteamide = C(CS[*:3])N[*:1]; Api = NC1(C(=O)O)CCNCC1; Mpa = O=C(O)CCS
In this section we review reported fraction fluorescent probe displaced, Screen values for a set of compounds.
# respond with the number and nothing more

Before answering, review these 4 worked examples.
- compound: "O=C1CCSSCCNC(=O)c2cccc(c2)CNC(=O)[C@H](CNC(=O)c2ccc(Cl)s2)NC(=O)[C@H](Cc2ccccc2)N1"
  target.entity: "UniProt Q00987"
  result.value: 0.0241
- compound: "O=C1CCNC(=O)[C@H](Cc2c[nH]c3ccccc23)NC(=O)CCSSCCNC(=O)[C@H](CNC(=O)c2ccc(Cl)s2)N1"
  target.entity: "UniProt Q00987"
  result.value: 0.23
- compound: "O=C(NCC1NC(=O)C2CCCN(C2)C(=O)CCSSCCNC(=O)C(Cc2ccccc2)NC1=O)c1ccc(Cl)s1 (centres unmarked)"
  target.entity: "UniProt Q00987"
  result.value: 0.14
- compound: "O=C1CCSSCCNC(=O)C2(CCN(C(=O)c3ccc(Cl)s3)CC2)NC(=O)c2cccc(c2)CNC(=O)[C@H](Cc2c[nH]c3ccccc23)N1"
  target.entity: "UniProt Q00987"
  result.value: 0.14

Let us move to another entry and its fraction fluorescent probe displaced, Screen.
Qu. Identify fraction fluorescent probe displaced, Screen associated with the compound O=C1NC2(CCN(C(=O)c3ccc(Cl)s3)CC2)C(=O)NCCSSCCC(=O)N2CCCC2C(=O)NC1Cc1ccccc1 (centres unmarked) [X B1 F D6 Acid 14] ([Mpa]PF[Api](2Thenoyl(5-Cl))-Cysteamide; disulfide 1-C; configuration not given here)
Ans. 0.08

###

Target: MDM2 (Homo sapiens)
Sequence (Q00987 whole entry): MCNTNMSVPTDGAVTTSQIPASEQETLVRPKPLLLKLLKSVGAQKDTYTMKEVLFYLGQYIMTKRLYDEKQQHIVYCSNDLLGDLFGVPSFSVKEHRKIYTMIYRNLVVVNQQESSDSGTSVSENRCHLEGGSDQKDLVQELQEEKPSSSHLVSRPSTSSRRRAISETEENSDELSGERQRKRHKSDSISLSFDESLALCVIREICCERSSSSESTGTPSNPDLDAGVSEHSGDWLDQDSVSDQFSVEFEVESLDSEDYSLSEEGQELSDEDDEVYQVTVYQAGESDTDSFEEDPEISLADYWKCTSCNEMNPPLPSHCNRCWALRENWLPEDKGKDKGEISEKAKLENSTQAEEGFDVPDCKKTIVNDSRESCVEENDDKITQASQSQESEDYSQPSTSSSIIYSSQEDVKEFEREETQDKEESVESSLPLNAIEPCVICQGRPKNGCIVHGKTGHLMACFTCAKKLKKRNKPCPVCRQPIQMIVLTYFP
Assay: MDM2 binding screen: displacement of fluorescent p53 peptide probe FP53 (fluorescence polarization)
Conditions: Acid 91; initial screen; crude macrocycle reactions
Numbered stars: 1 amine (or outer) side, 2 acyl side, 3 side chain; on linkers, the order of the positions; unused ones are H or OH. Bridge positions count the residues as written; N and C are the ends. Square brackets hold non-standard residues; d marks the D form. Peptide text beside a SMILES is read from it. * marks the point of attachment. Cysteamide = C(CS[*:3])N[*:1]; X1 = O=C(/C=C/c1ccccc1)*; Dap = NC[C@H](N)C(=O)O; Mpa = O=C(O)CCS
In this section we review reported fraction fluorescent probe displaced, Screen values for a set of compounds.
# respond with the number and nothing more

- compound: "O=C(/C=C/c1ccccc1)NC[C@@H]1NC(=O)c2cccc(c2)CNC(=O)[C@H](Cc2c[nH]c3ccccc23)NC(=O)CCSSCCNC1=O [X W B5 D3 Acid 91]"
  result.value: 0.03
- compound: "O=C1CCSSCCNC(=O)c2cccc(c2)CNC(=O)C2(CCN(C(=O)/C=C/c3ccccc3)CC2)NC(=O)[C@H](Cc2ccccc2)N1 [X F D6 B5 Acid 91]"
  result.value: -0.0241
- compound: "O=C(/C=C/c1ccccc1)NC[C@@H]1NC(=O)[C@H](Cc2c[nH]c3ccccc23)NC(=O)CCSSCCNC(=O)CCNC1=O [X W D3 B2 Acid 91]"
  result.value: 0.08
- compound: "O=C(/C=C/c1ccccc1)N[C@H]1C[C@H]2C(=O)N[C@@H](Cc3c[nH]c4ccccc34)C(=O)NCCC(=O)NCCSSCCC(=O)N2C1 [X D5 W B2 Acid 91]"
  result.value: 0.00268
- compound: "O=C(/C=C/c1ccccc1)NC[C@@H]1NC(=O)CCSSCCNC(=O)[C@H]2CCCN(C2)C(=O)[C@H](Cc2c[nH]c3ccccc23)NC1=O [X D3 W B4 Acid 91]"
  result.value: 0.14
- compound: "O=C(/C=C/c1ccccc1)NC[C@@H]1NC(=O)CCSSCCNC(=O)c2cccc(c2)CNC(=O)[C@H](Cc2c[nH]c3ccccc23)NC1=O [X D3 W B5 Acid 91]"
  result.value: 0.24
- compound: "O=C(/C=C/c1ccccc1)NC[C@@H]1NC(=O)CCSSCCNC(=O)CCNC(=O)[C@H](Cc2c[nH]c3ccccc23)NC1=O [X D3 W B2 Acid 91]"
  result.value: 0.19
- compound: "O=C(C=Cc1ccccc1)NC1CC2C(=O)NCc3cccc(c3)C(=O)NCCSSCCC(=O)NC(Cc3ccccc3)C(=O)N2C1 (stereo not drawn) [X F D5 B5 Acid 91]"
  result.value: -0.05
- compound: "O=C(/C=C/c1ccccc1)NC[C@@H]1NC(=O)CCSSCCNC(=O)CCNC(=O)[C@H](Cc2ccccc2)NC1=O [X D3 F B2 Acid 91]"
  result.value: 0.0563
- compound: "O=C(/C=C/c1ccccc1)NC[C@@H]1NC(=O)[C@H](Cc2c[nH]c3ccccc23)NC(=O)CCSSCCNC(=O)[C@@H]2CCCN2C1=O [X W D3 B1 Acid 91] ([Mpa]W[Dap](X1)P-Cysteamide; disulfide 1-C)"
  result.value: 0.11

Qu. Identify fraction fluorescent probe displaced, Screen associated with the compound O=C1CCNC(=O)C2(CCN(C(=O)/C=C/c3ccccc3)CC2)NC(=O)[C@H](Cc2ccccc2)NC(=O)CCSSCCN1 [X F D6 B2 Acid 91]
Ans. 0.03

Qu. Identify fraction fluorescent probe displaced, Screen associated with the compound O=C1CCSSCCNC(=O)[C@H](Cc2ccccc2)NC(=O)c2cccc(c2)CNC(=O)C2(CCN(C(=O)/C=C/c3ccccc3)CC2)N1 [X D6 B5 F Acid 91]
Ans. -0.05

The reported measurements were obtained from paper PMC9250534.
